assay_method_text: NCI Yeast Anticancer Drug Screen. Data for the cln2 rad14 strain (AID 165);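 note: 0% = growth equal to vehicle treated cultures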
condition_set: S. cerevisiae cln2 rad14 strain, at 50.0 µM (retest, dose inferred, filed as 5.0), hits give high values
About 79,000 compounds went through this panel and 15% of them were active in at least one assay; those are over-represented in the sample as a whole.
measurement_label: growth inhibition (%)
Answer format: numeric, % implied, no suffix.

CC1=C(C)CC2C(=O)C(C(O)CC(C)C)=CC(=O)C2C1 (configuration not stated) ... 86
O=c1cc(/C=C/c2ccccc2)cccc1O ... 98
Nc1ccc2[nH]c3ccccc3c2c1 ... 3

QUERY: Data request, read-out growth inhibition, for CC(Br)Cc1ccc2c(c1)OCO2 (configuration not stated)
RESULT: -1

QUERY: May I ask what growth inhibition has been recorded for CC(C)=CCC(CC=C(C)C)c1ccncc1 (tested in a mixture with another compound) ?
RESULT: 98

QUERY: # query: growth inhibition of entry Cc1cc(C)c(S(=O)(=O)c2c(C)cc(C)cc2C)c(C)c1
RESULT: -22

QUERY: I'd like to know its growth inhibition. The molecule in question is CCC(C)(C)NCCCCCNc1cc(OC)cc2cccnc12
RESULT: 9

QUERY: Which growth inhibition reading was recorded for the molecule Cc1ccc(C(=O)/C(Cl)=N/O)cc1 ?
RESULT: 99

QUERY: GET /values?readout=growth inhibition&item= O=C(Nc1c(Cl)cccc1Cl)Oc1c(Br)cc(Br)cc1Br
RESULT: 100

QUERY: Look up growth inhibition for this molecule: CC1(C)CCC[C@@]2(C)C1CC[C@@]1(CO1)[C@@H]2/C=C\C(C=O)CC=O (some centres not stated)
RESULT: 100

QUERY: Using the record for Cc1[nH]c2ccccc2c1-c1ccccc1 , report its growth inhibition.
RESULT: 99

QUERY: Find the recorded growth inhibition belonging to Nc1nc(Cl)cc(NCC2(CO)CC(CCCc3ccccc3)C2)n1 (configuration not stated) and report it.
RESULT: 12

###

assay_method_text: NCI Yeast Anticancer Drug Screen. Data for the rad50 strain (AID 155);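 note: 0% = growth of vehicle-only cultures of the same strain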
condition_set: S. cerevisiae rad50 strain growth inhibition; at 50.0 µM (retest, dose inferred, filed as 5.0); hits give high values
Compounds without any hit were thinned out: in the full panel of roughly 79,000, 15% have a hit.
measurement_label: growth inhibition (%)
Numeric answer only, unit % assumed.

Recorded results for 5 molecules are shown here.
Cc1cc(N=Nc2ccncc2C)ccc1N ... 98
CCOC(=O)C(/C=N\C(=S)Nc1c(CC)cccc1C(C)(C)C)=C(/O)c1ccccc1 ... 61
Nc1ccc(-c2ccc(Cl)cc2)cc1 ... 96
COC12C(COC(N)=O)C3=C(C(=O)C(C)=C(N)C3=O)N1CC1C2N1C(=O)/C=C/c1ccccc1 (stereo not given) ... 72
O=[N+]([O-])c1cnc(Sc2cncc[n+]2[O-])s1 ... 99

QUERY: What growth inhibition value was documented for this molecule, Cc1cc(Oc2nc(Cl)nc(C(Cl)(Cl)Cl)c2Cl)cc(C)c1N(C)C (tested in a mixture with another compound) ?
RESULT: 10

QUERY: GET /values?readout=growth inhibition&item= O=C1CC2(CCN(CC3COc4ccccc4O3)CC2)C(=O)N1N1CCCCCC1 (stereo not given)
RESULT: 66

QUERY: Data request, read-out growth inhibition, for Cc1ccc(N2C(=O)C(Cl)=C(Cl)C2=O)cc1
RESULT: 99

QUERY: Would you mind telling me what growth inhibition value was observed for COc1ccc(C2c3cc4c(cc3OC(N3CCOCC3)C2C)OCO4)c(OC)c1 (stereo not given) ?
RESULT: 88

QUERY: Please look up its growth inhibition: C=C1C(=O)OC2CC(C)C3C=CC(=O)C3CC12 (stereo not given)
RESULT: 55
